B1: PhoQ; a variant is named by its letters at X, in order, P23837 (parent)
chain: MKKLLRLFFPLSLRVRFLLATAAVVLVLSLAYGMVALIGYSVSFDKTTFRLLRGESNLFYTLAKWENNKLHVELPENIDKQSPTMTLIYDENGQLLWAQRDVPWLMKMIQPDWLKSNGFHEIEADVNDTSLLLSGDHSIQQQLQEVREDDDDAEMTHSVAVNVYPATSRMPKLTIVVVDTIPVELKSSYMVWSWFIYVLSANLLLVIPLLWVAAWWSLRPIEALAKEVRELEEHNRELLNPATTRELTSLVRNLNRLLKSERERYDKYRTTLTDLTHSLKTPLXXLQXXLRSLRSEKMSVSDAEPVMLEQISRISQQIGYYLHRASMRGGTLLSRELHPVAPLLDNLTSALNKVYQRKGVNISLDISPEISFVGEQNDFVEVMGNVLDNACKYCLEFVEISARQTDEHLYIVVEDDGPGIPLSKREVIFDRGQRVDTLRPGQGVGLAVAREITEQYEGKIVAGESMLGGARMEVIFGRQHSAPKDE

variants of: B1; experiment: enrichment ratio after two sorts for PhoP signalling (ratio (wild type AVST 3.29)); higher = more functional; settings: with PhoP (E. coli)
Over roughly 140,000 sequences, “enrichment ratio after two sorts for PhoP signalling” has its median near 0; the highest 2% begin near 11. This is one part of a sample in which the highest values are shown more often than they occur.
experimentalEndpoint: enrichment ratio

The value of enrichment ratio measured for the variant AECK turned out to be ≤ 0.25

Per the record, RQRD has enrichment ratio of ≤ 0.25

Lookup result for YSKM ; measured enrichment ratio: ≤ 0.25

Reported enrichment ratio ( AWLY ) = ≤ 0.25

Entry under test: SMQQ . Its enrichment ratio was ≤ 0.25

Sure, the documented enrichment ratio for KSSL is ≤ 0.25

Per the records, this variant ( FPWN ) has enrichment ratio equal to ≤ 0.25

For FCWL the variant record lists enrichment ratio as ≤ 0.25

Value of enrichment ratio reported for the variant GKHD is ≤ 0.25

So for AIWH , the logged enrichment ratio turned out to be ≤ 0.25

Short answer for NSSL : enrichment ratio was ≤ 0.25

Form field enrichment ratio, entry NVPN : ≤ 0.25

In plain terms, MITR has a documented enrichment ratio of ≤ 0.25

Value of measured enrichment ratio for the entry FPTD : ≤ 0.25

The variant listed as QRWL has a reported enrichment ratio of ≤ 0.25

// PTGD : enrichment ratio value = ≤ 0.25

Sample QNIY ; enrichment ratio observed: ≤ 0.25

enrichment ratio reported for this variant KAWN : ≤ 0.25

Form field enrichment ratio, entry ILKM : ≤ 0.25

Consider YFFH . Its measured enrichment ratio is ≤ 0.25

# enrichment ratio (variant: LFCN ) is ≤ 0.25

Reported enrichment ratio of GQLE : 14.3

Query FCSL yields enrichment ratio of 0.351

GET /value?item= KCCL &field=enrichment ratio returns ≤ 0.25

Record PNER . Reported enrichment ratio: ≤ 0.25

Form field enrichment ratio, entry SSTG : 12.4

# enrichment ratio of AWCH = ≤ 0.25

Just so you know, measured enrichment ratio for VECL came out at 2.59

Form field enrichment ratio, entry TMWI : ≤ 0.25

Value of measured enrichment ratio for the entry KCSL : ≤ 0.25

The reported value for REDG in terms of enrichment ratio is ≤ 0.25

Form: variant = TCCL ; enrichment ratio = 13.8

TEFF yielded enrichment ratio of 6.49

Just so you know, measured enrichment ratio for AECH came out at 16.5

The measured enrichment ratio associated with NHGE reads ≤ 0.25

Record KFEC , field enrichment ratio: ≤ 0.25

The reported enrichment ratio of the variant AECF was 2.16

For IDET the variant record lists enrichment ratio as ≤ 0.25

For record GYMM the listed enrichment ratio is 0.253

Lab note: AHIH gave enrichment ratio of ≤ 0.25

The recorded enrichment ratio for SYPA is ≤ 0.25

Briefly, enrichment ratio measured for AIIF : ≤ 0.25

// recorded enrichment ratio for TTFE : ≤ 0.25

SDSL has a reported enrichment ratio of 0.277

The variant PECQ showed enrichment ratio equal to ≤ 0.25

Input GTLE . Output enrichment ratio: 14.3

For AIIH the variant record lists enrichment ratio as 2.68

Value of measured enrichment ratio for the entry AEIF : 18.6

Recorded enrichment ratio (variant GYLE ): ≤ 0.25

enrichment ratio in this record for TSSL : 13.7

Entry under test: AEGA . Its enrichment ratio was 11

Form field enrichment ratio, entry VRSL : ≤ 0.25

Sure, the documented enrichment ratio for ADCC is 4.94

# variant MAWI ; its enrichment ratio = 8.24

The measured enrichment ratio associated with NMKE reads ≤ 0.25

Data point: YEMW ; enrichment ratio = ≤ 0.25

Lab book: enrichment ratio of AECG noted as ≤ 0.25

According to the records, this variant TQQE displays enrichment ratio of 44.9

response.value for DPTW (field: enrichment ratio) = ≤ 0.25

Form field enrichment ratio, entry TMPA : ≤ 0.25

// TMCS : enrichment ratio value = 16.8

Recorded enrichment ratio (variant DQCK ): ≤ 0.25

GET /value?item= AGMA &field=enrichment ratio returns 5.7

Recorded enrichment ratio (variant ARIV ): ≤ 0.25

Given item YTQE , the value recorded as its enrichment ratio is ≤ 0.25

get_value(item= SFTG , readout=enrichment ratio) returns 5.29
